Target: T1, 4H3753-AA
T1 chain: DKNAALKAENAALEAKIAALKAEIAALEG
Assay: two-hybrid library CCmax;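 further: natural log of median RNA to DNA barcode read ratio; higher means stronger binding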
Settings: mean of both orientations
Endpoint label: interaction score

Examples with their reported interaction score follow.
binder="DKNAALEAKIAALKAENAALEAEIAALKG [4H3410-AA]" endpoint_label="interaction score" result=-1.39
binder="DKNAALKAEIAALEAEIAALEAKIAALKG [4H3590-AA]" endpoint_label="interaction score" result=0.435
binder="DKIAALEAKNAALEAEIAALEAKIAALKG [4H2438-AA]" endpoint_label="interaction score" result=1.89

As a next step, examine the binder that follows.
Please report the recorded interaction score for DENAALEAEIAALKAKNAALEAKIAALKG [4H1142-AA] .
-2.1
